System: Klebsiella pneumoniae
EXPERIMENTAL_DETAILS: Minimum inhibitory concentration was evaluated in vitro againist Klebsiella pneumoniae 39645
Format: functional
MEASUREMENT_LABEL: MIC

{"ITEM_SMILES": "CCCCCCCCCCCCCC(=O)NNC(=O)C[n+]1ccccc1", "MIC": "> 79 µM"}
{"ITEM_SMILES": "CCCCCCCCCCCC(=O)NNC(=O)C[n+]1ccccc1", "MIC": "680 µM"}
{"ITEM_SMILES": "CCCCCCCCCC(=O)NNC(=O)C[n+]1ccccc1", "MIC": "> 1500 µM"}
{"ITEM_SMILES": "CCCCCCCC/C=C\\CCCCCCCC(=O)NNC(=O)C[n+]1ccccc1", "MIC": "> 69 µM"}
{"ITEM_SMILES": "CCCCCCCCCCCCCCCC(=O)NNC(=O)C[n+]1ccccc1", "MIC": "> 74 µM"}

List the reported MIC of each compound below.
1. CCCCCCCC(=O)NNC(=O)C[n+]1ccccc1
2. CCCCCCCCCCCCCCCCCC(=O)NNC(=O)C[n+]1ccccc1

1. > 1600 µM
2. > 69 µM
